Test system: Saccharomyces cerevisiae
Assay: protein stability index of tFT-peptide fusion in deletion strain of DOA10 (PSI (0-1 scale)); higher = more stable (slower turnover)
protein stability index values by entry

| Input Sequence | protein stability index |
| --- | --- |
| CMVSLPILLFFR | 0.584 |
| AITLPMCPLLTR | 0.606 |
| CLVSLPILLFYR | 0.585 |
| CLCSLPILLFFR | 0.615 |

###

Test system: Saccharomyces cerevisiae
Experiment: protein stability index of tFT-peptide fusion (C-terminal peptide) (PSI (0-1 scale)); higher = more stable (slower turnover)
Settings: genetic background: wild type; temperature: 30 C
Think of 0.7 as a floor: if protein stability index stands on it or above, it is 1.0; beneath it, 0.0.

| Input Sequence | Class Assignment |
| --- | --- |
| SVHPLIISYSQL [TRM732 C-terminal 12 aa] | 0.0 |
| NIKALNQSKSHM [SPO77 C-terminal 12 aa] | 0.0 |
| EIKQRNLRMQRQ [MPO1 C-terminal 12 aa] | 0.0 |
| DIMVFEISNCRV [HIS1 C-terminal 12 aa] | 1.0 |
| KNRYLHLLEQHK [BET4 C-terminal 12 aa] | 0.0 |
| QLHLVLTLRGGN [RUB1 C-terminal 12 aa] | 1.0 |
| TNQPVNENNDLK [SNF3 C-terminal 12 aa] | 0.0 |
| EAQTSRAKNELS [PHD1 C-terminal 12 aa] | 0.0 |
| YSDGRNYKESSI [CSS3 C-terminal 12 aa] | 0.0 |
| VRILTKYPKILV [RIM101 C-terminal 12 aa] | 0.0 |
| GYIVGVAALLFL [ANS1 C-terminal 12 aa] | 0.0 |
| RSLLRKSKPLQA [RPM2 C-terminal 12 aa] | 0.0 |
| PTPKALTNEKTH [MGR1 C-terminal 12 aa] | 0.0 |
| KEYISDQRKKRK [LOA1 C-terminal 12 aa] | 1.0 |

###

System: Saccharomyces cerevisiae
Assay: protein stability index of tFT-peptide fusion (C-terminal peptide) (PSI (0-1 scale)); higher = more stable (slower turnover)
Conditions: genetic background: doa10 deletion; temperature: 30 C
Observable: protein stability index

| Input Sequence | Observable | Result |
| --- | --- | --- |
| LRLLSLIPPLSC | protein stability index | 0.34 |
| FFACSLLFVLVF | protein stability index | 0.139 |
| CGILACSVCTFF | protein stability index | 0.405 |
| VQFISLVCLFRF | protein stability index | 0.346 |
| GSRRYYFTWVYQ | protein stability index | 0.0716 |
| FFRLFAPLLVVL | protein stability index | 0.262 |
| CFVPFFLPLCAF | protein stability index | 0.144 |
| WVVVGWVGVGFR | protein stability index | 0.361 |
| PVPPRVNLLRVS | protein stability index | 0.215 |
| SAVLFLLFVYVR | protein stability index | 0.168 |
| LPPFGLFLFVFI | protein stability index | 0.274 |
| PHHSPPTGPPND | protein stability index | 0.663 |
| CFSYLLIVLLFP | protein stability index | 0.216 |
| LIVCVKAITIVS | protein stability index | 0.0226 |
| ICQLLKFPLFWC | protein stability index | 0.311 |
| FFALYGHILGLF | protein stability index | 0.472 |
| LISRLVLVFVIP | protein stability index | 0.284 |
| KVALWRRGVLAA | protein stability index | 0.142 |
| APPLPFPTPPPS | protein stability index | 0.647 |
| PRINTFVVVRVC | protein stability index | 0.0626 |

###

Test system: Saccharomyces cerevisiae
Test: protein stability index of tFT-peptide fusion (C-terminal peptide) (PSI (0-1 scale)); higher = more stable (slower turnover)
Details: genetic background: das1 deletion; temperature: 30 C
Observable: protein stability index

| Input Sequence | System Name | Result |
| --- | --- | --- |
| CWMLWLQDRPVC [YBL112C C-terminal 12 aa] | Saccharomyces cerevisiae | 0.627 |
| YENEEIQRKRCI [YOR364W C-terminal 12 aa] | Saccharomyces cerevisiae | 0.696 |
| NIKALNQSKSHM [SPO77 C-terminal 12 aa] | Saccharomyces cerevisiae | 0.684 |
| RELFGVGTPQKL [TEA1 C-terminal 12 aa] | Saccharomyces cerevisiae | 0.717 |
| YQCSETSTPRNT [GIC1 C-terminal 12 aa] | Saccharomyces cerevisiae | 0.723 |
| RKSHERPDDVSV [SUR7 C-terminal 12 aa] | Saccharomyces cerevisiae | 0.692 |
| AIMAVACNVIFS [AGA1 C-terminal 12 aa] | Saccharomyces cerevisiae | 0.292 |
| SPGEYEIGDMEN [YDR061W C-terminal 12 aa] | Saccharomyces cerevisiae | 0.675 |
| QARKSKSVSFYA [RPT5 C-terminal 12 aa] | Saccharomyces cerevisiae | 0.693 |
| LFCYCSCDSYES [YBL100C C-terminal 12 aa] | Saccharomyces cerevisiae | 0.646 |
| EEWSSKFGSNGS [YTA6 C-terminal 12 aa] | Saccharomyces cerevisiae | 0.743 |
| WRRSKSISTHLR [YLR366W C-terminal 12 aa] | Saccharomyces cerevisiae | 0.711 |
| AFSSNDLLTVHL [BRE1 C-terminal 12 aa] | Saccharomyces cerevisiae | 0.698 |
| DGYPKDNEDIDP [MAL13 C-terminal 12 aa] | Saccharomyces cerevisiae | 0.7 |
| KKPFDKKPKFNI [YKU70 C-terminal 12 aa] | Saccharomyces cerevisiae | 0.727 |
| QVPEEDFPVVNY [DNL4 C-terminal 12 aa] | Saccharomyces cerevisiae | 0.697 |
| VGNYFMAIQRLN [COQ3 C-terminal 12 aa] | Saccharomyces cerevisiae | 0.731 |
| YPVDKEGDIVLE [THP2 C-terminal 12 aa] | Saccharomyces cerevisiae | 0.679 |
| TLGLLCLIFGLP [YOR277C C-terminal 12 aa] | Saccharomyces cerevisiae | 0.482 |
| TNQPVNENNDLK [SNF3 C-terminal 12 aa] | Saccharomyces cerevisiae | 0.667 |
| QHSRGSPNNSNN [YKU80 C-terminal 12 aa] | Saccharomyces cerevisiae | 0.701 |
| ESSSPSQLQHEA [PHO84 C-terminal 12 aa] | Saccharomyces cerevisiae | 0.694 |
| LRRGEPDNKVNR [SPG4 C-terminal 12 aa] | Saccharomyces cerevisiae | 0.71 |
| SQTKSKQTLFTI [YPR142C C-terminal 12 aa] | Saccharomyces cerevisiae | 0.722 |
| ESRLFISDGAVF [MON1 C-terminal 12 aa] | Saccharomyces cerevisiae | 0.696 |
| ILAENEIEVSRG [FET5 C-terminal 12 aa] | Saccharomyces cerevisiae | 0.704 |
| TLSKEPFLVFSF [YDL185C-A C-terminal 12 aa] | Saccharomyces cerevisiae | 0.499 |
| AIGNCVQDEEKL [AVL9 C-terminal 12 aa] | Saccharomyces cerevisiae | 0.717 |
| GKKLKKIFGRKK [SEG1 C-terminal 12 aa] | Saccharomyces cerevisiae | 0.719 |
| TFELVMRFLGEE [YMC2 C-terminal 12 aa] | Saccharomyces cerevisiae | 0.709 |
| KDNTVDIYDVNG [TGS1 C-terminal 12 aa] | Saccharomyces cerevisiae | 0.687 |
| IAVNYCMFGRSY [YHR020W C-terminal 12 aa] | Saccharomyces cerevisiae | 0.685 |
| GQIVIVHYLYDR [YOR218C C-terminal 12 aa] | Saccharomyces cerevisiae | 0.422 |
| KKGLLHKLKKKL [IST2 C-terminal 12 aa] | Saccharomyces cerevisiae | 0.726 |
| QQEQDKKKKSNH [PRE6 C-terminal 12 aa] | Saccharomyces cerevisiae | 0.709 |
| GKVLFKPSSSIF [YBR064W C-terminal 12 aa] | Saccharomyces cerevisiae | 0.719 |
| VEKKKVLSKITL [VPH2 C-terminal 12 aa] | Saccharomyces cerevisiae | 0.691 |
| RAHITKQKKKGY [SDA1 C-terminal 12 aa] | Saccharomyces cerevisiae | 0.732 |
| SIIDKELENIDS [SGD1 C-terminal 12 aa] | Saccharomyces cerevisiae | 0.731 |
| DDGIATYNNTQG [KNS1 C-terminal 12 aa] | Saccharomyces cerevisiae | 0.693 |
| IPSIGKPKTIKI [BUD17 C-terminal 12 aa] | Saccharomyces cerevisiae | 0.672 |
| SEKIYRRSLFKQ [YKL165C-A C-terminal 12 aa] | Saccharomyces cerevisiae | 0.708 |
| VLDEEFRNNNAS [RAD26 C-terminal 12 aa] | Saccharomyces cerevisiae | 0.716 |
| KNRYLHLLEQHK [BET4 C-terminal 12 aa] | Saccharomyces cerevisiae | 0.692 |
| WDKQKALERRSV [CNS1 C-terminal 12 aa] | Saccharomyces cerevisiae | 0.723 |
